Attribution: patent US8822503B2

# target_desc: human liver GK (Homo sapiens)
# Construct: GST (glutathione S-transferase) (N)
# Sequence (P35557 1-466 isoform P35557-2): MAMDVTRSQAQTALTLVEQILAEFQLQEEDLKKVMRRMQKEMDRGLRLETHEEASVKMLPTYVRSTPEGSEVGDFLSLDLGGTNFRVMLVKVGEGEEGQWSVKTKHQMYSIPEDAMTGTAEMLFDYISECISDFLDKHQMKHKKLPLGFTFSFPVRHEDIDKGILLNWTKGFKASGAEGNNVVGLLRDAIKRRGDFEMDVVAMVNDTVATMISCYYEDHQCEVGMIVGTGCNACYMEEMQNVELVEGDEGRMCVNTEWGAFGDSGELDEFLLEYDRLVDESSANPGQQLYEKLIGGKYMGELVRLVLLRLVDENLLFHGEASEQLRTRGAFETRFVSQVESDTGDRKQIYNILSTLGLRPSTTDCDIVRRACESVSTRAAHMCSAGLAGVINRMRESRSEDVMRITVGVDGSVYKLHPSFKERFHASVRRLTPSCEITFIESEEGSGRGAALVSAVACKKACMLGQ
# test: GK activation test
# conditions: test compound concentration needed to activate 50% of maximum activation ability; 4 mM 14C-labeled glucose, 2 mM ATP, room temperature, 20 minutes
The following molecules are shown together with reported EC50 values.

INSERT INTO assay_data (structure_string, test_result) VALUES
  ('CCS(=O)(=O)N1CC[C@H](/C=C(\c2ccc(C(C)(C)C)cc2)c2ccc(Cl)c(=O)[nH]2)C1', '0.01 to 0.5 µM'),
  ('O=C(C1CC1)N1CC[C@H](/C=C(\c2ccc(Cl)cc2)c2ccc(C3CC3)c(=O)[nH]2)C1', '0.01 to 0.5 µM'),
  ('O=C1CC[C@H](/C=C(\c2ccc(C(F)(F)F)cc2)c2ccc(C(F)(F)F)c(=O)[nH]2)N1', '0.5 to 3 µM'),
  ('Cc1cc(/C(=C\[C@H]2CCC(=O)N2)c2ccc(C3CC3)c(=O)[nH]2)ccc1SC1CC1', '0.01 to 0.5 µM');

Query: Return reported EC50; argument: `CCN1CC(S(=O)(=O)c2ccc(/C(=C\C3CCCC3)c3ccc(C)c(=O)[nH]3)cc2)C1`
Response: 0.5 to 3 µM

Query: Return reported EC50; argument: `O=C1CC[C@H](/C=C(\c2ccc(OC(F)F)cc2)c2ccc(C3CC3)c(=O)[nH]2)N1`
Response: 0.01 to 0.5 µM

Query: Return reported EC50; argument: `Cc1ccc(/C(=C/C2CCCC2)c2ccc(SCCCO)c(Cl)c2)[nH]c1=O`
Response: 0.01 to 0.5 µM
